Molecular target: Follicle-stimulating hormone receptor (Homo sapiens, UniProt P23945)
Sequence (P23945 whole entry): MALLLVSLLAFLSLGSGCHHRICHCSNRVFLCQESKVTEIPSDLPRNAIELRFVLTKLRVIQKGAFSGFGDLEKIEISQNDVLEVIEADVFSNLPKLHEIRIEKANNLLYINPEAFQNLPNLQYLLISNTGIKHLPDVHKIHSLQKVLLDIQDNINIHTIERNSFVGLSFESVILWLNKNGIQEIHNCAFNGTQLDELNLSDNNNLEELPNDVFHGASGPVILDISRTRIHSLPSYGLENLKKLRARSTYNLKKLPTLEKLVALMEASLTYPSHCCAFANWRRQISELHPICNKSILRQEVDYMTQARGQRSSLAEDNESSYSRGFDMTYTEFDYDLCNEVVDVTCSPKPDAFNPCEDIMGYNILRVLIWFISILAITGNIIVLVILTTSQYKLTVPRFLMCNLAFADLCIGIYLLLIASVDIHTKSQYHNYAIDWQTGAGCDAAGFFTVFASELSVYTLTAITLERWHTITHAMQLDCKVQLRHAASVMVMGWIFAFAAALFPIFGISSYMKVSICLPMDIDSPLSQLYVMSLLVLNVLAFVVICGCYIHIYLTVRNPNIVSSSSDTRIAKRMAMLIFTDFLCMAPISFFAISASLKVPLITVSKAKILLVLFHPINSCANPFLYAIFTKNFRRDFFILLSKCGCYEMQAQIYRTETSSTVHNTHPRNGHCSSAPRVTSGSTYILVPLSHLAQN
Assay: In vitro inhibition of maximum response evoked by cAMP on CHO-K1 cells expressing human Follicle stimulating hormone receptor
Format: functional, cell-based
metric name: IC50
Answer by giving the amount and then stating its unit.

May I ask what IC50 has been recorded for CC(=O)N1c2ccc(NC(=O)c3ccc(-c4ccccc4)cc3)cc2C(C)(c2ccccc2)CC1(C)C (stereo in doubt; 10) ?
10 nM

====

Target: Follicle-stimulating hormone receptor (Homo sapiens, UniProt P23945)
Sequence (P23945 whole entry): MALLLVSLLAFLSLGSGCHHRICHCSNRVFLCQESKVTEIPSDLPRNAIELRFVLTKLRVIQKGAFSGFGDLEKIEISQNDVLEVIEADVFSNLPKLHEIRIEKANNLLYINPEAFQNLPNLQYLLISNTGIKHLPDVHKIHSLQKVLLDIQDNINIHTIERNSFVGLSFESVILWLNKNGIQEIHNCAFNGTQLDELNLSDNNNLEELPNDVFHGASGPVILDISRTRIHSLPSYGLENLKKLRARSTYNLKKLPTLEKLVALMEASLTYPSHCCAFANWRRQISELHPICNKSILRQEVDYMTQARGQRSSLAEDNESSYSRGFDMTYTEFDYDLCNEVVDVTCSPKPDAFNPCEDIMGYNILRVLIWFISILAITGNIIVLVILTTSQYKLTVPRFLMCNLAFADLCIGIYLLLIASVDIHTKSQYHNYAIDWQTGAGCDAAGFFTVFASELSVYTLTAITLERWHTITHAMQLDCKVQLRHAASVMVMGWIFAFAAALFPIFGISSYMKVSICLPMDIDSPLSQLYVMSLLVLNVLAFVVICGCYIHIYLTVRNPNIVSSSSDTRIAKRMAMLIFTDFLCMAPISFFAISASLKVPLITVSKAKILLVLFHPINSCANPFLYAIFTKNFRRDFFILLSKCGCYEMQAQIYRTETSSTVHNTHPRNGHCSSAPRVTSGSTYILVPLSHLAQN
Experiment: Effective concentration for maximum response on CHO-K1 cells expressing human Follicle stimulating hormone receptor
metric name: pEC50
Numbers only, as −log10 of the molar value.

May I ask what pEC50 has been recorded for CC(=O)N1c2ccc(N)cc2C(C)(c2ccccc2)CC1(C)C (stereo unspecified) ?
5.36

====

Target: Follicle-stimulating hormone receptor (Homo sapiens)
Sequence (P23945 whole entry): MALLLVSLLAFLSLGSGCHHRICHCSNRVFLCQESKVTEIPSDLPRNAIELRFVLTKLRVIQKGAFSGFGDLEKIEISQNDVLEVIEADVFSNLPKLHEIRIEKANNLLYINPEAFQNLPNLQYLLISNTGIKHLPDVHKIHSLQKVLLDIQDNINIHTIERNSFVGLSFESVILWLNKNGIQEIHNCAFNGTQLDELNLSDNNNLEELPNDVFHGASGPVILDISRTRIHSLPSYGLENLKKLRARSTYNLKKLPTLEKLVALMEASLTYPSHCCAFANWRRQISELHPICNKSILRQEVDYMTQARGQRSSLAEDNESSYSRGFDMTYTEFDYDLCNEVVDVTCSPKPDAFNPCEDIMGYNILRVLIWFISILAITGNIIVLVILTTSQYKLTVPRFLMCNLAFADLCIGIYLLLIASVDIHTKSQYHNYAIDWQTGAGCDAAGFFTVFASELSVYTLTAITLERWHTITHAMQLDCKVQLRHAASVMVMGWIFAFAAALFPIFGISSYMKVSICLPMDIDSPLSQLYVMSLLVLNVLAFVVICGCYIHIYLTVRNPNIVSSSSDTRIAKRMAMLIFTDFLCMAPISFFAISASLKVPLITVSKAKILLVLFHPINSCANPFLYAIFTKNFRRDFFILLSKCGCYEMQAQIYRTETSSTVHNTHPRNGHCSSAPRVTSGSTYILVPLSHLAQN
Assay: In vitro inhibition of maximum response on CHO-K1 cells expressing human Follicle stimulating hormone receptor
Assay type: functional, cell-based
metric name: IC50 (nM)
Numbers only, in nM.

Solved entries:
compound	metric name	display unit	value
CC(=O)N1c2ccc(NC(=O)c3ccc(-c4ccccc4)cc3)cc2C(C)(c2ccccc2)CC1(C)C (stereo in doubt; 10)	IC50	nM	28
CC(=O)N1c2ccc(NC(=O)c3ccc(-c4ccccc4)cc3)cc2C(C)(c2ccc(C)cc2)CC1(C)C (stereo not drawn)	IC50	nM	50

Note: attention shifts to another entry.
Find the measured IC50: item CC(=O)N1c2ccc(NC(=O)COC(C)(C)C)cc2C(C)(c2ccccc2)CC1(C)C (stereo not drawn) , target or system Follicle-stimulating hormone receptor (Homo sapiens).
76

====

Molecular target: Follicle-stimulating hormone receptor (Homo sapiens)
Sequence (P23945 whole entry): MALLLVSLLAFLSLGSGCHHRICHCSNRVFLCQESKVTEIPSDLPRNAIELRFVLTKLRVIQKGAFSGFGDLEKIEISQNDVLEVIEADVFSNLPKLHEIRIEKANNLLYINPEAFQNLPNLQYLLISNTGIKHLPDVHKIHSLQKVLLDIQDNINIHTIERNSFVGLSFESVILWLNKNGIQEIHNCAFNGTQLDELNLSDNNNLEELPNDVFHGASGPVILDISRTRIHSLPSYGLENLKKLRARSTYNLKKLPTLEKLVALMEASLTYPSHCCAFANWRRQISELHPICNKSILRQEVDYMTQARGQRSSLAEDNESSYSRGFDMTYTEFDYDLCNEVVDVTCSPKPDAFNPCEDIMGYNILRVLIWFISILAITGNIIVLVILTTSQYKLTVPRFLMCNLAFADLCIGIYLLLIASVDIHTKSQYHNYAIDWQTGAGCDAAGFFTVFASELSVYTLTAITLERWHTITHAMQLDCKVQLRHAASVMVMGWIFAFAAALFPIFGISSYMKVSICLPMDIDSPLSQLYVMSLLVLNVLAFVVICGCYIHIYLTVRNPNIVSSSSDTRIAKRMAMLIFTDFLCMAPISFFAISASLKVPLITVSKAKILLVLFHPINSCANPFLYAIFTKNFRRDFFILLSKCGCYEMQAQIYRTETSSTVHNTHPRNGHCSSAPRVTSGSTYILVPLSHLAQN
Assay: In vitro inhibition of maximum response on CHO-K1 cells expressing human Follicle stimulating hormone receptor
Format: functional, cell-based
metric name: pIC50
Give bare numbers, as −log10 of the molar value.

Solved entries:
molecule	pIC50
CC(=O)N1c2ccc(NC(=O)Nc3ccccc3)cc2C(C)(c2ccccc2)CC1(C)C (configuration not stated)	6.24
CC(=O)N1c2ccc(NC(=O)c3ccc(C(F)(F)F)cc3)cc2C(C)(c2ccccc2)CC1(C)C (configuration not stated)	8.15
CC(=O)N1c2ccc(OC(=O)c3ccc(-c4ccccc4)cc3)cc2C(C)(c2ccccc2)CC1(C)C (configuration not stated)	7.27
CC(=O)N1c2cc(C)c(NC(=O)c3ccc(-c4ccccc4)cc3)cc2C(C)(c2ccccc2)CC1(C)C (configuration not stated)	8.30
COc1ccccc1C1(C)CC(C)(C)N(C(C)=O)c2ccc(NC(=O)c3ccc(-c4ccccc4)cc3)cc21 (configuration not stated)	6.77

Provide pIC50 for all items below, preserving their order.
1. COc1cc(NC(=O)c2ccc(-c3ccccc3)cc2)cc2c1N(C(C)=O)C(C)(C)CC2(C)c1ccccc1 (configuration not stated)
2. CC(=O)N1c2ccc(OCc3ccc(-c4ccccc4)cc3)cc2C(C)(c2ccccc2)CC1(C)C (configuration not stated)

7.52
6.78

====

Biological target: UniProtKB P20395
Sequence (P20395 whole entry): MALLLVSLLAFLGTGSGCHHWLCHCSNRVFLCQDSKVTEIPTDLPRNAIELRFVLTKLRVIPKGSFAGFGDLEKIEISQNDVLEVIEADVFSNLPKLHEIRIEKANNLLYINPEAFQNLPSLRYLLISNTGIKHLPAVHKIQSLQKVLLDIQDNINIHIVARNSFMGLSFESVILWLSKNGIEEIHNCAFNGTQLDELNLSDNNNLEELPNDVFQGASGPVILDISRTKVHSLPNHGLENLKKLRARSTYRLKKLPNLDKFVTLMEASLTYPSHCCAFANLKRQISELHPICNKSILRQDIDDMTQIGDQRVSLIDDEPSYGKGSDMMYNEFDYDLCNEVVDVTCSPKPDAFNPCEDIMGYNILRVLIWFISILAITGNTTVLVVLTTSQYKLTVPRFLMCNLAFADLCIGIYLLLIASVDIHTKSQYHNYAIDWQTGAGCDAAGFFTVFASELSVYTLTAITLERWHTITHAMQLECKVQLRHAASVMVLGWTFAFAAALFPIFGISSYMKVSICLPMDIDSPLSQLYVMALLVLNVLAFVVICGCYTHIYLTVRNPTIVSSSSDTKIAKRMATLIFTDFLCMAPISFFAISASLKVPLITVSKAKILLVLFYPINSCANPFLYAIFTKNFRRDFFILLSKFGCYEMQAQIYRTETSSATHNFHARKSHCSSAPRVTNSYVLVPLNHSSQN
Test: In vitro inhibition against maximum response evoked by cAMP in rat GFSHR-17 granulosa cell line
metric name: IC50 (µM)
One number for each entry, in µM.

May I ask what IC50 has been recorded for CC(=O)N1c2ccc(NC(=O)c3ccc(-c4ccccc4)cc3)cc2C(C)(c2ccccc2)CC1(C)C (stereo in doubt; 10) ?
0.54
